The measured values listed here are drawn from paper PMC9667936.

assayed system: 14-3-3γ (Homo sapiens)
Construct: made in house; host or cells: E. coli NiCo21 (DE3)
Sequence (P61981 whole entry): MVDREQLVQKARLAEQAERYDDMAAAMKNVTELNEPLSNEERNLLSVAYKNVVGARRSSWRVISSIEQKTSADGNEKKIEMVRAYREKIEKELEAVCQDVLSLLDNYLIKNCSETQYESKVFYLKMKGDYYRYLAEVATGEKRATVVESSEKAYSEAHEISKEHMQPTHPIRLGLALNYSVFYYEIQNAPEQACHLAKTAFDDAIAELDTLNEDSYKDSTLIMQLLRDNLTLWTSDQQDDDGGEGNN
assay notes: Fluorescence anisotropy (FA) binary binding study: 14-3-3 titrated to fluorescein-labelled peptide
run parameters: Table S4; from FA Kd; replicate 3
Where a SMILES comes first, the peptide text is derived from it. [ ]: non-standard residue; d: D form. ξ: configuration not given here. Phe(4-NO2) = N[C@@H](Cc1ccc([N+](=O)[O-])cc1)C(=O)O; ξAla(4-thiazolyl) = NC(Cc1cscn1)C(=O)O; pS = N[C@@H](COP(=O)(O)O)C(=O)O; β3hS = N[C@@H](CO)CC(=O)O; Nva = CCC[C@H](N)C(=O)O; βAla = NCCC(=O)O
Record form. Attribute: ΔG. Fill in for each entry.
Answer format: numeric, kcal/mol implied, no suffix.

In: Name the reported ΔG value associated with the molecule CCC[C@H](NC(=O)[C@H](N)CCCCN)C(=O)N[C@@H](Cc1ccc([N+](=O)[O-])cc1)C(=O)NC(Cc1cscn1)C(=O)N[C@@H](COP(=O)(O)O)C(=O)N[C@@H](C)C(=O)N[C@@H](CO)CC(=O)NCCC(=O)N[C@@H](Cc1ccc([N+](=O)[O-])cc1)C(=O)N[C@@H](CCCCN)C(N)=O (stereo partly drawn) [4c] (H-[dK][Nva][Phe(4-NO2)][ξAla(4-thiazolyl)][pS]A[β3hS][βAla][Phe(4-NO2)]K-NH2; N-terminus and C-terminus assumed)
Out: -7.9

In: Tell me the measured ΔG of CCC[C@H](NC(=O)[C@H](N)CCCCN)C(=O)N[C@@H](Cc1ccc([N+](=O)[O-])cc1)C(=O)NC(Cc1cscn1)C(=O)N[C@@H](COP(=O)(O)O)C(=O)N[C@@H](Cc1ccc([N+](=O)[O-])cc1)C(=O)N[C@@H](CO)CC(=O)NCCC(=O)N[C@@H](C)C(=O)N[C@@H](CCCCN)C(N)=O (stereo partly drawn) [5c] (H-[dK][Nva][Phe(4-NO2)][ξAla(4-thiazolyl)][pS][Phe(4-NO2)][β3hS][βAla]AK-NH2; N-terminus and C-terminus assumed) , please.
Out: -7.5

In: Look up ΔG: CCC[C@H](NC(=O)[C@H](N)CCCCN)C(=O)N[C@@H](Cc1ccc([N+](=O)[O-])cc1)C(=O)NC(Cc1cscn1)C(=O)N[C@@H](COP(=O)(O)O)C(=O)N[C@@H](Cc1ccccc1)C(=O)N[C@@H](CO)CC(=O)NCCC(=O)N[C@@H](Cc1ccc([N+](=O)[O-])cc1)C(=O)N[C@@H](CCCCN)C(N)=O (stereo partly drawn) [4b] (H-[dK][Nva][Phe(4-NO2)][ξAla(4-thiazolyl)][pS]F[β3hS][βAla][Phe(4-NO2)]K-NH2; N-terminus and C-terminus assumed)
Out: -9.6

In: For the molecule shown here, CCC[C@H](NC(=O)[C@H](N)CCCCN)C(=O)N[C@@H](Cc1ccc([N+](=O)[O-])cc1)C(=O)NC(Cc1cscn1)C(=O)N[C@@H](COP(=O)(O)O)C(=O)N[C@@H](Cc1ccc(O)cc1)C(=O)N[C@@H](CO)CC(=O)NCCC(=O)N[C@@H](Cc1ccc([N+](=O)[O-])cc1)C(=O)N[C@@H](CCCCN)C(N)=O (stereo partly drawn) [4a] (H-[dK][Nva][Phe(4-NO2)][ξAla(4-thiazolyl)][pS]Y[β3hS][βAla][Phe(4-NO2)]K-NH2; N-terminus and C-terminus assumed) , give the reported ΔG.
Out: -9.8
